Listed here: items and their measured Percent Effect.
- System: Trypanosoma cruzi
- experiment_summary: Trypanosoma cruzi phosphomannomutase and mannose-1-phosphate guanylyltransferase assay
- Type: functional
- Design: scale not given: direction of the effect not stated beside the values
- test_conditions: 10 µM
Please state the figure in %; there is no need to write the unit.

[[record]]
molecule = "O=C(NCCn1ccnc1)c1ccn(-c2cccc(F)c2)n1"
experimental_system = "Trypanosoma cruzi"
observed = -11.1

[[record]]
molecule = "Cc1ncsc1C(=O)NC1CCN(CC(=O)NCc2ccccc2)CC1"
experimental_system = "Trypanosoma cruzi"
observed = 2.71

[[record]]
molecule = "CNC(=O)c1nc2c(s1)CCN(C(=O)Cc1ccc(OC)cc1)CC2"
experimental_system = "Trypanosoma cruzi"
observed = -1.07

[[record]]
molecule = "COc1ncccc1C(=O)N1CC[C@H]2C[C@@H](C)O[C@@H]2C1"
experimental_system = "Trypanosoma cruzi"
observed = -0.589

[[record]]
molecule = "c1cnnc(N2CCCC2CNCc2cnc(N3CCCC3)nc2)c1 (configuration not stated)"
experimental_system = "Trypanosoma cruzi"
observed = 1.33

[[record]]
molecule = "Cc1cccc(-c2nc(CN(Cc3cccs3)CC3CCCO3)no2)c1 (configuration not stated)"
experimental_system = "Trypanosoma cruzi"
observed = 0.103

[[record]]
molecule = "CCN1CCN(C(=O)c2cnn(-c3ccccc3Cl)c2)CC1"
experimental_system = "Trypanosoma cruzi"
observed = -2.36

[[record]]
molecule = "N#Cc1cccc(CS(=O)(=O)NCCC(O)c2ccccc2)c1 (configuration not stated)"
experimental_system = "Trypanosoma cruzi"
observed = 4.77


Could you now look at the following molecule, please?
Q: Determine reported Percent Effect for Cc1cc(-c2nnn(CCC(N)=O)n2)ccc1F ; test system: Trypanosoma cruzi.
Result: 5.75

* * *

- experimental_system: Chromo domain-containing protein 1 (Saccharomyces cerevisiae (strain ATCC 204508 / S288c) (Baker's yeast)) (UniProt P32657)
- Sequence (P32657 whole entry, the tested form may be a part): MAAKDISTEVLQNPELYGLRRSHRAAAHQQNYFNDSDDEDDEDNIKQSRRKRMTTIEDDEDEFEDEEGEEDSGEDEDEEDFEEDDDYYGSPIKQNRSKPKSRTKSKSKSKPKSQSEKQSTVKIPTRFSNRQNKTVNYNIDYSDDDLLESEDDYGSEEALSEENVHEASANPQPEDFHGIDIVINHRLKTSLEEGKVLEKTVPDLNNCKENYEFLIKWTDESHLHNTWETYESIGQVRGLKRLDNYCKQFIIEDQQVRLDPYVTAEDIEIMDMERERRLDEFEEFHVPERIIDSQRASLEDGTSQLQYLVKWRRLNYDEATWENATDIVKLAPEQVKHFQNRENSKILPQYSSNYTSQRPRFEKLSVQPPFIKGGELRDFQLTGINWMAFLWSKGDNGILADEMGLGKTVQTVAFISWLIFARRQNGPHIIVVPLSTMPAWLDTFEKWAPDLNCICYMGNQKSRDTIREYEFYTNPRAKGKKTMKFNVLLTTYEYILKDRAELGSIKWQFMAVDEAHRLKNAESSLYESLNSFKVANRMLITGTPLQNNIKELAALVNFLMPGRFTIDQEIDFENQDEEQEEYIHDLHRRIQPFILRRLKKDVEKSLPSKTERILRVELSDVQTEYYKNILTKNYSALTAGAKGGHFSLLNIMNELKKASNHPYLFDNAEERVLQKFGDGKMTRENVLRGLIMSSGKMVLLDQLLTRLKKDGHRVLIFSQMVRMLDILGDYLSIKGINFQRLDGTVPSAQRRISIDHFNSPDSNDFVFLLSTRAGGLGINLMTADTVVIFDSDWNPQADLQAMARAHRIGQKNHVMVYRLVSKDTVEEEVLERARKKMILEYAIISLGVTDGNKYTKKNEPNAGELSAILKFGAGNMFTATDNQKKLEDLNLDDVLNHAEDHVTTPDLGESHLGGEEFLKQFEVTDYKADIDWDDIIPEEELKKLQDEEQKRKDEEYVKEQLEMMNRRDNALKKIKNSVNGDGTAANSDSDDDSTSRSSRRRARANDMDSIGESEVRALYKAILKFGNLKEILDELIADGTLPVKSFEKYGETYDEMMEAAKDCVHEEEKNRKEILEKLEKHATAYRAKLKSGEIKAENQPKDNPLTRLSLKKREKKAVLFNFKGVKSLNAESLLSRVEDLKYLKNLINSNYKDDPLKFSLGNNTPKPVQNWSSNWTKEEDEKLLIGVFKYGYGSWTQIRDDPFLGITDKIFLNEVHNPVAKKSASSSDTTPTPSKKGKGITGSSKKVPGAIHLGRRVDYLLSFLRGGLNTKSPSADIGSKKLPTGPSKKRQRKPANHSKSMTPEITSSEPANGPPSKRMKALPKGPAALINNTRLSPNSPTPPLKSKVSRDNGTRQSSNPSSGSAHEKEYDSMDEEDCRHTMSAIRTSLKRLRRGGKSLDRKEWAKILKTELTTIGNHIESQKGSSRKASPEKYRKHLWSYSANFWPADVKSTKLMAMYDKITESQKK
- experiment_summary: ScCHD-1 Enzyme Inhibition Assay; also: in the data most compounds retested in dose-response had high values
- Assay type: functional
- Parameters: scale not given: direction of the effect not stated beside the values
- test_conditions: 30 µM
property_label: Percent Effect (%)
Please state the figure in %; there is no need to write the unit.

[[record]]
compound = "O=C1CC(c2ccc(C(=O)O)cc2)c2ncn(-c3ccccc3)c2N1 (configuration not stated)"
observed = -7.97

[[record]]
compound = "O=C(c1ccccc1OCC1CC1)N1CCCC(n2ccnc2)C1 (configuration not stated)"
observed = -6.24

[[record]]
compound = "CN(C)S(=O)(=O)N1CCCC1CC(=O)c1cccs1 (configuration not stated)"
observed = -1.64

[[record]]
compound = "COCC1c2c(cnn2C)CCN1Cc1ccoc1 (configuration not stated)"
observed = 2.42

[[record]]
compound = "CC(C(=O)Nc1ccc(N2CCCC2)nc1)n1ccnc1 (configuration not stated)"
observed = -8.67

[[record]]
compound = "CN(Cc1cccc(Cl)c1)S(=O)(=O)N1CCOCC1"
observed = -2.59

[[record]]
compound = "CCC(C)c1noc(C2CCN(C(=O)c3cccnc3)CC2)n1 (configuration not stated)"
observed = -2.94

[[record]]
compound = "COc1ccc(C(=O)N(Cc2cnn(C)c2)C(C)C)cc1Br"
observed = -4.6


Q: Specify Percent Effect for Cc1cccc(Cn2c3c(ccc2=O)CCN(Cc2ccoc2)CC3)n1 and stop.
Result: -3.8

Q: Specify Percent Effect for O=C(NCCNCC1CNc2ccnn2C1)c1ccc(F)cc1 (configuration not stated) and stop.
Result: -2.41

Q: Specify Percent Effect for Cc1cc(C)n(C2CN(CC(O)c3ccc4c(c3)OCO4)C2)n1 (configuration not stated) and stop.
Result: -2.01

Q: Specify Percent Effect for COC(=O)N1CCc2ccc(NC(=O)c3cn(C)nn3)cc2C1 and stop.
Result: 90.7

* * *

Listed here: items and their measured Percent Effect.
- Tested on: Trypanosoma cruzi
- experiment_summary: Trypanosoma cruzi phosphomannomutase and mannose-1-phosphate guanylyltransferase assay
- Format: functional
- Design: scale not given: direction of the effect not stated beside the values
- test_conditions: 10 µM
Please state the figure in %; there is no need to write the unit.

Here's what some known entries look like.
[[record]]
compound = "Cc1nc(CN2C[C@@H]3CN(C(=O)C4CC4)C[C@@H]3C2=O)cs1"
property_label = "Percent Effect"
observed = -5.57

[[record]]
compound = "COCC(=O)N1CCO[C@H]2[C@H](OC)CC[C@@H]21"
property_label = "Percent Effect"
observed = -4.79

[[record]]
compound = "CCOCCCn1c(NC(=O)c2cnn(C)c2)nc2ccccc21"
property_label = "Percent Effect"
observed = -1.69

[[record]]
compound = "O=C(Nc1ccccn1)N(CCO)Cc1ccsc1"
property_label = "Percent Effect"
observed = 0.564

[[record]]
compound = "NC(=O)c1cnn2c1NCC(CNCCCOc1ccccc1F)C2 (stereo not drawn)"
property_label = "Percent Effect"
observed = 3.38


Could you now look at the following compound, please?
Q: Determine reported Percent Effect for Cc1n[nH]c(C2CN(C(=O)c3cnc[nH]3)CCO2)n1 (stereo not drawn) ; test system: Trypanosoma cruzi.
Result: 3.62

* * *

Listed here: items and their measured Percent Effect.
- experimental_system: Proteasome subunit beta (Trypanosoma cruzi) (UniProt O96673)
- Sequence (whole entry): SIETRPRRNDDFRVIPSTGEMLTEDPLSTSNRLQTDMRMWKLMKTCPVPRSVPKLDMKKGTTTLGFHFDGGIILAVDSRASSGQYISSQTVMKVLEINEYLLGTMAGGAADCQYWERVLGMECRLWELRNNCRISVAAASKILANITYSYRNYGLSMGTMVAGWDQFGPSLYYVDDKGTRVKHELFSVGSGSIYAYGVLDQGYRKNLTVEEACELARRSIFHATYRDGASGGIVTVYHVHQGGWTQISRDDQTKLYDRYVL
- experiment_summary: Trypanosoma cruzi proteasome chymotrypsin-like activity (TcProtChymo) assay. Also: in the data most compounds retested in dose-response had high values.
- Format: functional
- Design: scale not given: direction of the effect not stated beside the values
- test_conditions: 9.37 µM
Please state the figure in %; there is no need to write the unit.

[[record]]
compound = "COc1ncccc1CN1Cc2nnn(C)c2C(COCC2CC2)C1 (centres undefined)"
value_unit = "%"
observed = 1.92

[[record]]
compound = "CCN1CCCC1CN(CCN(C)C)S(=O)(=O)c1cccc(C#N)c1 (centres undefined)"
value_unit = "%"
observed = 8.16

[[record]]
compound = "CN(Cc1ccc(Cl)s1)C(=O)c1cccc(OCC(N)=O)c1"
value_unit = "%"
observed = 11.2

[[record]]
compound = "CN(CCCNC(=O)N1CCCC1c1ccsc1)c1ccccn1 (centres undefined)"
value_unit = "%"
observed = 12.5


Q: Determine reported Percent Effect for CCCS(=O)(=O)N1CCO[C@H]2[C@H](OCc3ccccn3)CC[C@@H]21 ; test system: Proteasome subunit beta (Trypanosoma cruzi) (UniProt O96673).
Result: 10.1

Q: Determine reported Percent Effect for O=C(NCCCNC(=O)c1cccc(O)c1)Nc1ccc(F)cc1F ; test system: Proteasome subunit beta (Trypanosoma cruzi) (UniProt O96673).
Result: 12.9

Q: Determine reported Percent Effect for CC(O)CN1CCN(C(=O)c2cnn(-c3ccccc3F)c2)CC1 (centres undefined) ; test system: Proteasome subunit beta (Trypanosoma cruzi) (UniProt O96673).
Result: 9.59

Q: Determine reported Percent Effect for Cn1nc(C(=O)NCc2ccccn2)c2c1CCS(=O)(=O)C2 ; test system: Proteasome subunit beta (Trypanosoma cruzi) (UniProt O96673).
Result: 16.3

Q: Determine reported Percent Effect for O=C(NCCc1nnc2n1CCC2)NCC1(c2cccc(F)c2)CC1 ; test system: Proteasome subunit beta (Trypanosoma cruzi) (UniProt O96673).
Result: -1.44

Q: Determine reported Percent Effect for CN(C)S(=O)(=O)N1CC[C@@H]2CN(Cc3cnn(C)c3)C[C@@H]2C1 ; test system: Proteasome subunit beta (Trypanosoma cruzi) (UniProt O96673).
Result: 0.696

Q: Determine reported Percent Effect for CNC(=O)CS(=O)(=O)Cc1cc(Cl)c2c(c1)OCCCO2 ; test system: Proteasome subunit beta (Trypanosoma cruzi) (UniProt O96673).
Result: 7.62

Q: Determine reported Percent Effect for Cc1cc(C)n(CC2CCCN2C(=O)c2cnn(C)c2C2CC2)n1 (centres undefined) ; test system: Proteasome subunit beta (Trypanosoma cruzi) (UniProt O96673).
Result: 0.718

Q: Determine reported Percent Effect for CCN1CCOC(CNCc2ccccc2OCC(=O)N(C)C)C1 (centres undefined) ; test system: Proteasome subunit beta (Trypanosoma cruzi) (UniProt O96673).
Result: -4.32

Q: Determine reported Percent Effect for COc1ccc(CN2CCCC(Nc3cccc(F)c3)C2)cc1O (centres undefined) ; test system: Proteasome subunit beta (Trypanosoma cruzi) (UniProt O96673).
Result: -5.06

* * *

Listed here: items and their measured Percent Effect.
- experimental_system: Tyrosyl-tRNA synthetase, putative (Trypanosoma cruzi (strain CL Brener))
- experiment_summary: Trypanosoma cruzi tyrosyl tRNA synthetase (TcYRS) _High Tyrosine SOP; also: in the data most compounds retested in dose-response had high values
- Assay type: functional
- Set-up: scale not given: direction of the effect not stated beside the values
- test_conditions: 30 µM

Here's what some known entries look like.
[[record]]
molecule = "Cc1ccccc1NS(=O)(=O)c1cc2c(c(C(=O)O)c1)OCCO2"
observed = "2.46%"

[[record]]
molecule = "COc1ccc2c(c1)C1(CCN(Cc3ccoc3)CC1)N(C)CC2"
observed = "-1.06%"

[[record]]
molecule = "O=C(CN1CCCCC1Cn1cccn1)NC1CCN(C2CC2)CC1 (centres undefined)"
observed = "0.529%"

[[record]]
molecule = "Cc1ccccc1CS(=O)(=O)NCCCN1CCCCC1"
observed = "1.64%"


Q: Determine reported Percent Effect for COCCCN(CCOC)C(=O)Nc1ccccc1Br ; test system: Tyrosyl-tRNA synthetase, putative (Trypanosoma cruzi (strain CL Brener)).
Result: 3.19%

Q: Determine reported Percent Effect for COc1ccc(CN2C[C@@H]3CCCO[C@@H]3[C@H](NS(C)(=O)=O)C2)cc1 ; test system: Tyrosyl-tRNA synthetase, putative (Trypanosoma cruzi (strain CL Brener)).
Result: 6.25%

Q: Determine reported Percent Effect for Cc1nc(Nc2nccs2)cc(C2CCCN2C2CCOCC2)n1 (centres undefined) ; test system: Tyrosyl-tRNA synthetase, putative (Trypanosoma cruzi (strain CL Brener)).
Result: 6.45%
